target: Recombinant human LTC4 synthase (Homo sapiens, UniProt Q16873); construct: made in house; host or cells: Pichia pastoris ('Piccia pastoralis' [sic]); test: LTC4 synthase in vitro assay (LTA4 to LTC4, HTRF detection); assay type: biochemical
Sequence (Q16873 whole entry): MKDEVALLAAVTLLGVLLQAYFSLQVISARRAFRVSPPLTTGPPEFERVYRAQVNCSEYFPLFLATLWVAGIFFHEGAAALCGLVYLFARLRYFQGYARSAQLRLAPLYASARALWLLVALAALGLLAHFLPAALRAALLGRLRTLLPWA
Please go through the items and note down their IC50.
Please state the figure in µM; there is no need to write the unit.

// query Look up IC50: O=C(c1ccc(Oc2ccc(Cl)c(Cl)c2)c(C(=O)O)c1)c1ccc(N(CC2CC2)c2ccc(Cl)cc2)cn1
// result 0.072

// query # lookup: IC50 of CN(c1ccc(Cl)cc1)c1ccc(C(=O)c2ccc(-n3nc(C(F)(F)F)cc3-c3ccccc3)c(C(=O)O)c2)nc1
// result 0.177

// query State the recorded IC50 for this entry: O=C(c1ccc(Oc2ccccc2)c(C(=O)O)c1)c1ccc(OCc2cccc(Br)c2)cn1
// result 0.126

// query Query: IC50; subject: O=C(c1ccc(Oc2ccccc2)c(C(=O)O)c1)c1ccc(OCc2cccc(C(F)(F)F)c2)cn1
// result 0.181

// query IC50 lookup needed for COc1ccc(Oc2ccc(C(=O)c3ccc(N(CC4CC4)c4ccc(Cl)cc4)cn3)cc2C(=O)O)cc1 , thanks.
// result 0.094

// query I'd like to know its IC50. The molecule in question is CN(c1ccc(Cl)cc1)c1ccc(C(=O)c2ccc(OCc3ccccc3)c(C(=O)O)c2)nc1
// result 0.375

// query Return reported IC50; argument: CN(c1ccc(Cl)cc1)c1ccc(C(=O)c2ccc(-c3ccccc3OCC3CC3)c(C(=O)O)c2)nc1
// result 0.384

// query Any idea what its IC50 is? The molecule is COc1ccc(C(=O)Nc2ccc(C(=O)c3ccc(N(CC4CC4)c4ccc(Cl)cc4)cn3)cc2C(=O)O)c(OC)c1
// result 0.016

// query Using the record for C=CCN(c1ccc(Cl)cc1)c1ccc(C(=O)c2ccc(Oc3ccccc3)c(C(=O)O)c2)nc1 , report its IC50.
// result 0.088

// query Find the recorded IC50 belonging to O=C(c1ccc(Oc2ccccc2)c(C(=O)O)c1)c1ccc(N(CC2CC2)c2ccc(Cl)cc2)cn1 and report it.
// result 0.062

// query Which value of IC50 has been reported for O=C(c1ccc(Oc2ccccc2Oc2ccccc2)c(C(=O)O)c1)c1ccc(N(CC2CC2)c2ccc(Cl)cc2)cn1 in the records?
// result 0.066

// query Give the measured IC50 of CN(c1ccc(Cl)cc1)c1ccc(C(=O)c2ccc(NCc3cccnc3)c(C(=O)O)c2)nc1 .
// result 0.466

// query What IC50 value was documented for this molecule, CN(c1ccc(Cl)cc1)c1ccc(C(=O)c2ccc(Oc3ccccc3[S+](C)[O-])c(C(=O)O)c2)nc1 (stereo not shown) ?
// result 1.03

// query Fill in the blank: the reported IC50 of CN(c1ccc(Cl)cc1)c1ccc(C(=O)c2ccc(NC3CCC(F)(F)CC3)c(C(=O)O)c2)nc1 is ____.
// result 0.184

// query Field request: IC50 | item: CN(c1ccc(Cl)cc1)c1ccc(C(=O)c2ccc(-n3nc(-c4ccccc4)cc3C(F)(F)F)c(C(=O)O)c2)nc1
// result 0.104

// query Which measured IC50 value corresponds to COc1ccc(C(=O)c2ccc(C(=O)c3ccc(N(C)c4ccc(Cl)cc4)cn3)cc2C(=O)O)c(OC)c1 ?
// result 0.068
